# Test system: MgrA (MarR family transcriptional regulator), Staphylococcus aureus Newman
# Assay comment: modulators of MgrA DNA binding – biochemical, S. aureus Newman, fluorescence polarization, primary screen (AID 602314);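 note: 0% = protein plus DNA without compound and 100% = DNA alone without protein; higher means less MgrA bound to DNA so lower polarization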
# Measurement parameters: hits give high values, concentration not given here
Among all 84,000 compounds or so, about 110 (0.13%) were called active. This is one part of a sample in which actives are shown more often than they occur.
Endpoint label: inhibition (%)

INSERT INTO measurements (compound, subject_of_test, endpoint_label, val) VALUES
  ('CCN(CC)C(=O)Cc1cc(OC)c(OC)cc1Br', 'MgrA (MarR family transcriptional regulator), Staphylococcus aureus Newman', 'inhibition', 3.35),
  ('CC1CCCN(c2ncccc2C(=O)NCC2CCCO2)C1 (stereo not drawn)', 'MgrA (MarR family transcriptional regulator), Staphylococcus aureus Newman', 'inhibition', 1.1),
  ('COc1ccccc1Nc1n[nH]c(=S)n1C(=O)c1cccs1', 'MgrA (MarR family transcriptional regulator), Staphylococcus aureus Newman', 'inhibition', 2.9),
  ('CCN(CC)CCCN1C(=O)C2C3C=CC(C2C1=O)C1C2C(=O)N(CCCN(CC)CC)C(=O)C2C31 (stereo not drawn)', 'MgrA (MarR family transcriptional regulator), Staphylococcus aureus Newman', 'inhibition', 0.8),
  ('CCOc1cc2c(cc1/C=C(\C#N)c1ccc(C(F)(F)F)cc1)OCO2', 'MgrA (MarR family transcriptional regulator), Staphylococcus aureus Newman', 'inhibition', 1.15),
  ('CCC(=O)Nc1cc(NC(=O)c2ccco2)ccc1C', 'MgrA (MarR family transcriptional regulator), Staphylococcus aureus Newman', 'inhibition', -1.65),
  ('O=C(O)c1ccccc1Cc1cccs1', 'MgrA (MarR family transcriptional regulator), Staphylococcus aureus Newman', 'inhibition', -3.8),
  ('O=C1C(Nc2ccc(O)cc2)=C(n2nnc3ccccc32)C(=O)c2ccccc21', 'MgrA (MarR family transcriptional regulator), Staphylococcus aureus Newman', 'inhibition', -0.3),
  ('CC(=O)Oc1ccc(OC(C)=O)c2c1C1C=CC2CC1', 'MgrA (MarR family transcriptional regulator), Staphylococcus aureus Newman', 'inhibition', -2.5),
  ('CCc1cccc(CC)c1N1C(=O)CC(Sc2ccccc2N)C1=O (stereo not drawn)', 'MgrA (MarR family transcriptional regulator), Staphylococcus aureus Newman', 'inhibition', 1.1),
  ('COC(=O)C1=Cc2cc(Cl)ccc2OC1', 'MgrA (MarR family transcriptional regulator), Staphylococcus aureus Newman', 'inhibition', 0.15),
  ('O=C1CSC(=S)N1c1ccc(Oc2ccc(Cl)cc2)cc1', 'MgrA (MarR family transcriptional regulator), Staphylococcus aureus Newman', 'inhibition', -2.4),
  ('CC1=C(C(=O)OCCOC(C)C)C(c2ccccc2OCc2ccccc2)NC(=O)N1 (stereo not drawn)', 'MgrA (MarR family transcriptional regulator), Staphylococcus aureus Newman', 'inhibition', -4.9);
